- System Tested: Microtubule-associated protein tau (Homo sapiens, UniProt P10636)
- Sequence (P10636 whole entry): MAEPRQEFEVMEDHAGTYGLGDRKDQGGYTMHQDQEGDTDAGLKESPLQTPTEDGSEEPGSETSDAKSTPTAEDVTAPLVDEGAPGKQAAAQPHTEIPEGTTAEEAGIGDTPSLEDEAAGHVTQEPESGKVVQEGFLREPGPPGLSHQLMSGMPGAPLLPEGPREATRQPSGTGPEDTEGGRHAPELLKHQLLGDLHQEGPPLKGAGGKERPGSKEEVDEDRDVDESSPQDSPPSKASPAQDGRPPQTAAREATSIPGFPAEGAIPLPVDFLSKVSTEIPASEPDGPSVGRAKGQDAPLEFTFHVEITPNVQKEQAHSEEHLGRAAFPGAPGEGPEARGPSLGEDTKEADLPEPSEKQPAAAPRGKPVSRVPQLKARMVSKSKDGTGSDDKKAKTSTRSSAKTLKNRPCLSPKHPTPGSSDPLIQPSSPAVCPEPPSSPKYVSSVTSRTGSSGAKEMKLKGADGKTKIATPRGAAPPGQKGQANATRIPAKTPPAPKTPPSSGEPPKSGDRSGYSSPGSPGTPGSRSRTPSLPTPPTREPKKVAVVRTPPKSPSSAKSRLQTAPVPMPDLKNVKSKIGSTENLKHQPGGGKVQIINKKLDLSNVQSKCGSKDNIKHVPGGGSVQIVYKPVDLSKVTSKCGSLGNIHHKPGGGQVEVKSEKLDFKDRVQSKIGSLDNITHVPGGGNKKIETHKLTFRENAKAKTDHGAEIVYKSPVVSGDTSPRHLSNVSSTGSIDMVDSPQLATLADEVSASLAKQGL
- Assay Notes: Inhibition of His-tagged human brain tau 3R MBD aggregation after 16 hrs by thioflavin T fluorescence method
pIC50: −log10 of the molar value.
Assay Readout: pIC50

Inquiry: Provide pIC50, tested on Microtubule-associated protein tau (Homo sapiens, UniProt P10636), for N#C/C(=C\c1ccc(-c2ccc(-c3ccc(N(c4ccccc4)c4ccccc4)cc3)c3nsnc23)s1)C(N)=O .
Reply text: < 5.00

Inquiry: Provide pIC50, tested on Microtubule-associated protein tau (Homo sapiens, UniProt P10636), for O=c1c(O)c(-c2ccc(O)c(O)c2)oc2c(O)c(O)cc(O)c12 [GOSSYPETIN] .
Reply text: > 5.52

Inquiry: Provide pIC50, tested on Microtubule-associated protein tau (Homo sapiens, UniProt P10636), for COc1ccc(-c2cc3c(s2)c2sc(-c4ccc(C=O)s4)cc2n3C(C)(C)C)cc1 .
Reply text: 6.54

Inquiry: Provide pIC50, tested on Microtubule-associated protein tau (Homo sapiens, UniProt P10636), for O=Cc1ccc(-c2ccc(-c3ccc(N(c4ccccc4)c4ccccc4)cc3)s2)s1 .
Reply text: < 5.00

Inquiry: Provide pIC50, tested on Microtubule-associated protein tau (Homo sapiens, UniProt P10636), for O=Cc1ccc(-c2ccc(-c3ccc(N(c4ccccc4)c4ccccc4)cc3)c3nsnc23)s1 .
Reply text: < 5.00

Inquiry: Provide pIC50, tested on Microtubule-associated protein tau (Homo sapiens, UniProt P10636), for N#CC(C#N)=Cc1ccc(-c2ccc(-c3ccc(N(c4ccccc4)c4ccccc4)cc3)c3nsnc23)s1 .
Reply text: < 5.00

Inquiry: Provide pIC50, tested on Microtubule-associated protein tau (Homo sapiens, UniProt P10636), for COc1ccc(-c2ccc(-c3ccc(C=O)s3)s2)cc1 .
Reply text: < 5.00

Inquiry: Provide pIC50, tested on Microtubule-associated protein tau (Homo sapiens, UniProt P10636), for N#C/C(=C\c1ccc(-c2ccc(-c3ccc(N(c4ccccc4)c4ccccc4)cc3)s2)s1)C(=O)O .
Reply text: 5.77

Inquiry: Provide pIC50, tested on Microtubule-associated protein tau (Homo sapiens, UniProt P10636), for COc1ccc(-c2ccc(-c3ccc(C=C(C#N)C#N)s3)s2)cc1 .
Reply text: < 5.00

Inquiry: Provide pIC50, tested on Microtubule-associated protein tau (Homo sapiens, UniProt P10636), for CN(C)c1ccc2nc3ccc(N)cc3[s+]c2c1 .
Reply text: > 5.52

Inquiry: Provide pIC50, tested on Microtubule-associated protein tau (Homo sapiens, UniProt P10636), for O=Cc1ccc(-c2ccc(-c3ccc4[nH]ccc4c3)s2)s1 .
Reply text: 5.80

Inquiry: Provide pIC50, tested on Microtubule-associated protein tau (Homo sapiens, UniProt P10636), for COc1ccc(-c2cc3c(s2)c2sc(-c4ccc(C=C(C#N)C#N)s4)cc2n3C(C)(C)C)cc1 .
Reply text: < 5.00

Inquiry: Provide pIC50, tested on Microtubule-associated protein tau (Homo sapiens, UniProt P10636), for N#C/C(=C\c1ccc(-c2ccc(-c3ccc(N(c4ccccc4)c4ccccc4)cc3)s2)s1)C(N)=O .
Reply text: < 5.00

* * *

For each entry below, report its IC50 value.
- System Tested: Microtubule-associated protein tau (Homo sapiens)
- Assay Notes: Inhibition of His-tagged human brain tau 3R MBD aggregation after 16 hrs by thioflavin T fluorescence method

Inquiry: Give the reported IC50 for this compound. COc1ccc(-c2cc3c(s2)c2sc(-c4ccc(/C=C(\C#N)C(N)=O)s4)cc2n3C(C)(C)C)cc1
Reply text: 0.3 µM

Inquiry: Give the reported IC50 for this compound. N#CC(C#N)=Cc1ccc(-c2ccc(-c3ccc(N(c4ccccc4)c4ccccc4)cc3)s2)s1
Reply text: > 10 µM

Inquiry: Give the reported IC50 for this compound. CC(C)(C)n1c2cc(-c3ccc(N(c4ccccc4)c4ccccc4)cc3)sc2c2sc(-c3ccc(/C=C(\C#N)C(N)=O)s3)cc21
Reply text: > 10 µM

Inquiry: Give the reported IC50 for this compound. CC(C)(C)n1c2cc(-c3ccc(N(c4ccccc4)c4ccccc4)cc3)sc2c2sc(-c3ccc(C=O)s3)cc21
Reply text: > 10 µM

Inquiry: Give the reported IC50 for this compound. CC(C)(C)n1c2cc(-c3ccc(N(c4ccccc4)c4ccccc4)cc3)sc2c2sc(-c3ccc(C=C(C#N)C#N)s3)cc21
Reply text: > 10 µM

Inquiry: Give the reported IC50 for this compound. CN1C(=O)C(=Cc2ccc(-c3ccc(-c4ccc(N(c5ccccc5)c5ccccc5)cc4)s3)s2)C(=O)N(C)C1=O
Reply text: > 10 µM

Inquiry: Give the reported IC50 for this compound. O=C1NC(=O)C(=Cc2ccc(-c3ccc(-c4ccc(N(c5ccccc5)c5ccccc5)cc4)s3)s2)C(=O)N1
Reply text: > 10 µM

Inquiry: Give the reported IC50 for this compound. CNc1ccc2nc3ccc(N(C)C)cc3[s+]c2c1
Reply text: < 3 µM
